biological target: T1, HLA-A2 molecules on the surface of human T2 cells (human); assay: T2 peptide-binding assay; HLA-A2 up-regulation on T2 cells, 50 ug/ml peptide plus b2m, flow cytometry with FITC anti-HLA-A2 mAb
T1 construct: MHC class I molecule that the peptides load onto; also called HLA-A2.1; HLA-A*0201
Observable: MFI (HLA-A2 mean fluorescence intensity) (MFI)
Answers are plain numbers, in MFI.

# Binder, Test Value
data = [
    ("GLVGLIFAV (Native peptide of CD138, synthetic; also called CD138 #2p; CD138 #2 peptide) [CD138 260-268 (GLVGLIFAV)]", 690),
]

Lab note: each binder below needs its MFI (HLA-A2 mean fluorescence intensity) filled in.
1. NISPWILAV (Native peptide of non-spliced XBP1, synthetic; also called XBP1 #2 peptide; XBP1 #2p) [XBP1 184-192 (NISPWILAV)]
2. ELFPQLISV (Native peptide of spliced XBP1, synthetic; also called SP XBP1 #3 peptide; SP XBP1 #3p) [SP XBP1 367-375 (ELFPQLISV)]
3. GILDNLDPV (also called SP XBP1 #1 peptide; SP XBP1 #1p) [SP XBP1 196-204 (GILDNLDPV)]

Response given:
720
785
762
